conditions: 333.15 K; 55000 kPa; Liquid; Vibrating tube method
Assign mass density to each entry below.
Numbers only, in kg/m3.

// below: answered compounds
Cc1ccc(C)s1 = 988.98
c1ccsc1 = 1064.72
Cc1cccs1 = 1022.36

# input for lookup
# mass density (compound: "Cc1ccsc1" ) is 1023.38

====

details: 323.15 K; 10000 kPa; Liquid; Vibrating tube method
MEASUREMENT_NAME: mass density (kg/m3)
One number for each entry, in kg/m3.

Sample records with mass density:
Cc1cccs1 = 996.84
c1ccsc1 = 1038.37
Cc1ccc(C)s1 = 963.75

Next compound, mass density to be filled in.
Noted for "Cc1ccsc1" : its mass density reads 998.41

====

Give measured mass density for each item. Keep answers brief.
settings: 308.15 K; 55000 kPa; Liquid; Vibrating tube method
± gives the expanded uncertainty stated by the source.
Remember to put the unit after the number in your answer.

# count of solved cases: 3
Cc1ccc(C)s1 = 1009.75 ± 0.5 kg/m3
c1ccsc1 = 1089.07 ± 0.55 kg/m3
Cc1ccsc1 = 1045.05 ± 0.53 kg/m3

Now consider the entry below.
mass density reading for "Cc1cccs1" : 1044.4 ± 0.56 kg/m3

====

Please go through the items and note down their mass density.
conditions: 313.15 K; 7000 kPa; Liquid; Vibrating tube method
Numbers only, in kg/m3.

Take a look at these entries with their results.
Cc1cccs1 = 1004.7
Cc1ccc(C)s1 = 970.97
c1ccsc1 = 1047.19

The compound identified as "Cc1ccsc1" registered its mass density at 1006.11

====

conditions: 288.15 K; 60000 kPa; Liquid; Vibrating tube method
Assign mass density to each entry below.
Give bare numbers, in kg/m3.

c1ccsc1 = 1111.61
Cc1ccc(C)s1 = 1029.38
Cc1cccs1 = 1065.07

Shift focus to the following entry.
mass density measured on "Cc1ccsc1" = 1065.32

====

settings: 313.15 K; 65000 kPa; Liquid; Vibrating tube method
± gives the expanded uncertainty stated by the source.
Hi there, I'd appreciate the recorded mass density for every entry that follows.
Number first, unit second.

Cc1ccc(C)s1 = 1011.53 ± 0.5 kg/m3
c1ccsc1 = 1090.59 ± 0.57 kg/m3
Cc1cccs1 = 1046.08 ± 0.57 kg/m3

mass density reported for this compound "Cc1ccsc1" : 1046.69 ± 0.54 kg/m3

====

Please respond with reported mass density for every item in the list.
conditions: 323.15 K; 30000 kPa; Liquid; Vibrating tube method
One number for each entry, in kg/m3.

A selection of reference data follows.
c1ccsc1 = 1055.85
Cc1ccsc1 = 1014.66
Cc1cccs1 = 1013.45

Please turn your attention to the following entry.
In plain terms, "Cc1ccc(C)s1" has a documented mass density of 979.99

====

conditions: 328.15 K; 7000 kPa; Liquid; Vibrating tube method
MEASUREMENT_NAME: mass density (kg/m3)
Answers are plain numbers, in kg/m3.

Example entries begin here.
c1ccsc1 [thiophene] = 1029.6
Cc1ccc(C)s1 [2,5-dimethylthiophene] = 956.1
Cc1ccsc1 [3-methylthiophene] = 990.51

Below: the item to evaluate.
Consider Cc1cccs1 [2-methylthiophene] . Its measured mass density is 988.79

====

details: 293.15 K; 15000 kPa; Liquid; Vibrating tube method
Numbers after ± are expanded uncertainties.
MEASUREMENT_NAME: mass density

List the reported mass density of each compound below.
1. Cc1ccc(C)s1
2. Cc1cccs1
3. c1ccsc1

result:
1. 996.71 ± 0.5 kg/m3
2. 1031.77 ± 0.53 kg/m3
3. 1076.63 ± 0.51 kg/m3

# mass density of "Cc1ccsc1" = 1032.61 ± 0.51 kg/m3
